Ref: patent US12528786B2

EXPERIMENTAL_SYSTEM: Human plasma kallikrein (Homo sapiens, UniProt P03952)
Construct: yields a heavy chain (371 amino acids) and a light chain (248 amino acids); purchased Enzyme Research Laboratories
Sequence (P03952 391-638 limits assumed): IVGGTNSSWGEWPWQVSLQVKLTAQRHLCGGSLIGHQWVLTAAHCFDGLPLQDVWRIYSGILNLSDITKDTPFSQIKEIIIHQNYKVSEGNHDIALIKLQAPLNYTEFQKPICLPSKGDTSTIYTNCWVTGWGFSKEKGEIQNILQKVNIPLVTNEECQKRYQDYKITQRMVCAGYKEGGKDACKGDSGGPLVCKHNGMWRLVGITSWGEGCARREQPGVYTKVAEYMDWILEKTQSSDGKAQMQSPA
Sequence (P03952 20-390 partner limits assumed): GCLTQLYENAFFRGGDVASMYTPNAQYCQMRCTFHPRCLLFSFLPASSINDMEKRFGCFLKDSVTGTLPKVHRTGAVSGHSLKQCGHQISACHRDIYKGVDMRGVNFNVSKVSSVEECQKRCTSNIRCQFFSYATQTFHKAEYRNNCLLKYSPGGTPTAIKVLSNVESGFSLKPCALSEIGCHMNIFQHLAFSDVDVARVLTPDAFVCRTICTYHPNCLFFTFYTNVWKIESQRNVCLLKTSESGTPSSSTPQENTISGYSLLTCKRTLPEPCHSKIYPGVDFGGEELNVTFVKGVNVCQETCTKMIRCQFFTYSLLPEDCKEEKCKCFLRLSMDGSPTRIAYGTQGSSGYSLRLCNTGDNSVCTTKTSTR
TEST_METHOD_NOTES: Kallikrein Assay (fluorogenic substrate hydrolysis, AFC release)
Type: biochemical
MEASUREMENT_CONDITIONS: purified Human plasma kallikrein 0.5 nM; substrate Acetyl-K—P—R-AFC 100 mM; 50 mM HEPES pH 7.4
Binary label based on IC50 with cut-off 4 nM: below gives fulfilled, not below gives not fulfilled.

INSERT INTO results (compound, experimental_system, label_value) VALUES
  ('Cc1ccc(C#N)c([C@H]2C[C@@H](NC(=O)c3cn(C(C)c4cnc(N5C[C@H]6C[C@H]6C5=O)c(C)n4)nn3)C2)n1 (single isomer, unassigned) [Example 115]', 'Human plasma kallikrein (Homo sapiens, UniProt P03952)', 'not fulfilled'),
  ('Cc1ccc(C#N)c([C@H]2C[C@@H](NC(=O)c3cn(C(C)c4cnc(N5C[C@H]6C[C@H]6C5=O)c(C)c4C)nn3)C2)c1 (single isomer, unassigned) [Example 114]', 'Human plasma kallikrein (Homo sapiens, UniProt P03952)', 'not fulfilled'),
  ('Cc1c(C(C)n2cc(C(=O)N[C@H]3C[C@@H](c4cc(Cl)ccc4C#N)C3)cn2)nnc(N2C[C@H]3C[C@H]3C2=O)c1C (single isomer, unassigned) [Example 42]', 'Human plasma kallikrein (Homo sapiens, UniProt P03952)', 'fulfilled'),
  ('[2H][C@]1(c2cc(Cl)ccc2C#N)C[C@@H](NC(=O)c2cn([C@@H](C)c3cnc(N4C[C@H]5C[C@H]5C4=O)cc3C)nn2)C1 [Example 147]', 'Human plasma kallikrein (Homo sapiens, UniProt P03952)', 'fulfilled'),
  ('Cc1c([C@@H](C)n2cc(C(=O)NC3CC(c4cc(Cl)ccc4C#N)C3)nn2)cnc(N2C[C@H]3C[C@H]3C2=O)c1O (single isomer, unassigned) [Example 163]', 'Human plasma kallikrein (Homo sapiens, UniProt P03952)', 'fulfilled');

Ask: Does this compound meet the criterion IC50 < 4 nM? Cc1cc(N2C[C@H]3C[C@H]3C2=O)nnc1C(C)n1cc(C(=O)N[C@H]2C[C@@H](c3cc(Cl)ccc3C#N)C2)nn1 (single isomer, unassigned) [Example 117]
Reply: not fulfilled

Ask: Find out if reported IC50 for COc1cc(N2C[C@H]3C[C@H]3C2=O)ncc1C(C)n1cc(C(=O)N[C@H]2C[C@@H](c3cc(Cl)ccc3C#N)C2)nn1 (single isomer, unassigned) [Example 88] is less than 4 nM
Reply: not fulfilled

====

Listed compounds paired with reported IC50
EXPERIMENTAL_SYSTEM: Human plasma kallikrein (Homo sapiens, UniProt P03952)
Construct: yields a heavy chain (371 amino acids) and a light chain (248 amino acids); purchased Enzyme Research Laboratories
TEST_METHOD_NOTES: Kallikrein Assay (fluorogenic substrate hydrolysis, AFC release)
Assay type: biochemical
MEASUREMENT_CONDITIONS: purified Human plasma kallikrein 0.5 nM; substrate Acetyl-K—P—R-AFC 100 mM; 50 mM HEPES pH 7.4

Guide cases for IC50, answers given:
INSERT INTO assay_data (compound, observed_result) VALUES
  ('Cc1ccc(C#N)c([C@H]2C[C@@H](NC(=O)c3cn(C(C)c4cnc(N5C[C@H]6C[C@H]6C5=O)c(C)c4C)nn3)C2)n1 (single isomer, unassigned) [Example 98]', '27.5 nM'),
  ('CC(c1ccc(N2C[C@H]3C[C@H]3C2=O)nc1)n1cc(C(=O)N[C@H]2C[C@@H](c3cc(Cl)ccc3C#N)C2)nn1 (single isomer, unassigned) [Example 57]', '7.7 nM'),
  ('Cc1c(C(C)n2cc(C(=O)NC3CC(c4cccc(Cl)c4)C3O)nn2)cnc(N2C[C@H]3C[C@H]3C2=O)c1F (single isomer, unassigned) [Example 123]', '41.3 nM');

Ask: Return reported IC50. Input compound: Cc1cc(N2C[C@H]3C[C@H]3C2=O)ncc1C(C)n1cc(C(=O)N[C@H]2C[C@@H](c3cc(F)ccc3C#N)C2)cn1 (single isomer, unassigned) [Example 35]
Reply: 102 nM

Ask: Report IC50 for Cc1cc(N2C[C@H]3C[C@H]3C2=O)ncc1C(C)n1cc(C(=O)N[C@H]2C[C@@H](c3cc(Cl)ccc3C#N)C2)nn1 (single isomer, unassigned) [Example 59]
Reply: 0.6 nM
